- System: Staphylococcus aureus ATCC 6538P
- Experimental Protocol: In-vitro antimicrobial activity primary screen (agar dilution MIC)
- Type: cell-based
- Assay Context: Staphylococcus aureus, ATCC6538P, 24 h, BHI agar, 20-24 h
For each of the compounds below, state its MIC.

Compound	MIC
CC[C@H]1OC(=O)[C@H](C)[C@@H](O[C@H]2C[C@@](C)(OC)[C@@H](O)[C@H](C)O2)[C@H](C)[C@@H](O[C@@H]2O[C@H](C)C[C@H](N(C)C)[C@H]2O)[C@](C)(O)C[C@@H](C)[C@@H]2O[C@@]1(C)[C@@H](O)[C@H]2C [Example 4]	0.2 µg/mL

Continue with the compound presented below.
Look at this compound and give its reported MIC. CC[C@H]1OC(=O)[C@H](C)[C@@H](O[C@H]2C[C@@](C)(OC)[C@@H](NS(C)(=O)=O)[C@H](C)O2)[C@H](C)[C@@H](O[C@@H]2O[C@H](C)C[C@H](N(C)C)[C@H]2O)[C@](C)(O)C[C@@H](C)[C@@H]2O[C@@]1(C)C(=O)[C@H]2C [Example 16]
0.39 µg/mL
